Measured inhibition at 0.1 µM by item
Tested on: K562
Experiment: Antiproliferative activity against human K562 cells assessed as inhibition of cell growth at 0.1 uM incubated for 72 hrs by MTT assay relative to control
Format: functional
Provide only the numeric value, understood in %.

>  <compound>
COc1ccc(/C=C/[Se](=O)(=O)c2cc(OC)c(OC)c(OC)c2)cc1

>  <property.measured>
inhibition at 0.1 µM

>  <unit.string>
%

>  <assay.value>
0.99

$$$$
>  <compound>
COc1cc([Se](=O)(=O)/C=C/c2cn(C)c3ccccc23)cc(OC)c1OC

>  <property.measured>
inhibition at 0.1 µM

>  <unit.string>
%

>  <assay.value>
3.32

$$$$
>  <compound>
COc1cc(/C=C/[Se](=O)(=O)c2cc(OC)c(OC)c(OC)c2)cc(OC)c1OC

>  <property.measured>
inhibition at 0.1 µM

>  <unit.string>
%

>  <assay.value>
1.58

$$$$

Query :: Respond only with inhibition at 0.1 µM recorded for COc1ccc(/C=C\c2cc(OC)c(OC)c(OC)c2)cc1O [COMBRETASTATIN A4]
Result :: 85.1
